- Tested on: HIF-2α transcriptional activity
- Method description: Hypoxia-responsive element-driven luciferase (HRE-Luc) screen
- Format: cell-based, human
- Conditions used: Homo sapiens, 786-0, 24 h, 786-0 ccRCC cells stably expressing HRE-Luc; 24 h treatment; range of IC50 values
pIC50: −log10 of the molar value.
Overview of reported pIC50 across a group of compounds:
Readout: pIC50

| Compound | Readout | Recorded result |
| --- | --- | --- |
| Fc1ccc(-c2nnc(Nc3nc4cncc(N5CCOCC5)c4[nH]3)o2)cc1 | pIC50 | 4.30 to 5.00 |
| [2H]C([2H])([2H])Oc1ccc(-c2nnc(Nc3nc4c(OC)nccc4[nH]3)o2)cc1OC([2H])([2H])[2H] | pIC50 | > 5.00 |
| Cc1cncc2nc(Nc3nnc(-c4ccc(F)cc4)o3)[nH]c12 | pIC50 | 4.30 to 5.00 |
| Fc1ccc(-c2nnc(Nc3nc4cnc(N5CCOCC5)cc4[nH]3)o2)cc1 | pIC50 | 4.30 to 5.00 |
| COc1cccc2[nH]c(Nc3nnc(N4CCS(=O)(=O)CC4)o3)nc12 | pIC50 | < 4.00 |
| COc1ccc(-c2nnc(Nc3nc4c(OC)cccc4[nH]3)o2)cc1OC | pIC50 | > 5.00 |
| COc1cccc2[nH]c(Nc3nnc(-c4ccc5c(c4)OCCO5)o3)nc12 | pIC50 | 4.00 to 4.30 |
| COc1nccc2[nH]c(Nc3nnc(-c4ccc(OC(F)(F)F)cc4)o3)nc12 | pIC50 | 4.30 to 5.00 |
| COc1nccc2[nH]c(Nc3nnc(-c4ccc(C)cc4)o3)nc12 | pIC50 | > 5.00 |
| COc1nccc2[nH]c(Nc3nnc(-c4ccc(N(C)C)cc4)o3)nc12 | pIC50 | > 5.00 |
| COc1ccc(-c2nnc(Nc3nc4c(OC)nc(C)cc4[nH]3)o2)cc1OC | pIC50 | > 5.00 |
| Fc1ccc(-c2nnc(Nc3nc4cnc(C(F)(F)F)cc4[nH]3)o2)cc1 | pIC50 | 4.30 to 5.00 |
| COc1cccc2nc(Nc3nnc(C4CCC(OC)CC4)o3)[nH]c12 (single isomer, unassigned) [Compound 75-isomer-1] | pIC50 | > 5.00 |

Data origin, for the record: patent US20250346588A1
